# System: SR leukemia
# Experiment Description: NCI tumour cell line growth inhibition, 48 h
The reader will find reported TGI values listed item by item below.

Example entries begin here.
| Molecule | Target Entity | Val |
| --- | --- | --- |
| O=C(c1ccccc1)N1C(=S)N(c2ccc([N+](=O)[O-])cc2)C(=Nc2ccccc2)C1=Nc1ccccc1 | SR leukemia | > 100 µM |
| COc1ccc(-c2csc3c2-n2cccc2C3=O)cc1O | SR leukemia | 31.9 µM |
| N/C(=N\c1nc2ccccc2s1)NC(=O)Nc1cccc2ccccc12 | SR leukemia | > 100 µM |

Please report the recorded TGI for COc1ccc(C2c3cc4c(cc3OC(N3CCCCC3)C2C)OCO4)cc1 (stereo not given) .
> 100 µM

Please report the recorded TGI for "CC(=O)NC1=C(NCc2ccc(Cl)cc2)C(=O)c2ccccc2C1=O" .
29.9 µM

Please report the recorded TGI for "CN1CCC(n2[nH]c(-c3ccccc3)c(Cc3ccccc3)c2=O)CC1" .
> 100 µM

Please report the recorded TGI for COC(=O)C1=Cc2c(cc(OC)c(OC)c2OC)[C@H](c2ccc(OC)c(OC)c2OC)C1C(=O)OC (stereo not given in full) .
> 100 µM

Please report the recorded TGI for CC1=CC2CC(C)C1(C)CCc1ccoc12 (stereo not given) .
> 100 µM

Please report the recorded TGI for "COc1cc(/C=C/C(=O)OC[C@H](Br)[C@H](OC(C)=O)c2ccc3c(c2)OCO3)cc(OC)c1OC" .
> 100 µM

Please report the recorded TGI for "COC(=O)c1cccc(C(=O)OC)c1" .
> 100 µM
